Target: Large T antigen (Simian virus 40) (UniProt P03070)
Sequence (P03070 whole entry, looked up): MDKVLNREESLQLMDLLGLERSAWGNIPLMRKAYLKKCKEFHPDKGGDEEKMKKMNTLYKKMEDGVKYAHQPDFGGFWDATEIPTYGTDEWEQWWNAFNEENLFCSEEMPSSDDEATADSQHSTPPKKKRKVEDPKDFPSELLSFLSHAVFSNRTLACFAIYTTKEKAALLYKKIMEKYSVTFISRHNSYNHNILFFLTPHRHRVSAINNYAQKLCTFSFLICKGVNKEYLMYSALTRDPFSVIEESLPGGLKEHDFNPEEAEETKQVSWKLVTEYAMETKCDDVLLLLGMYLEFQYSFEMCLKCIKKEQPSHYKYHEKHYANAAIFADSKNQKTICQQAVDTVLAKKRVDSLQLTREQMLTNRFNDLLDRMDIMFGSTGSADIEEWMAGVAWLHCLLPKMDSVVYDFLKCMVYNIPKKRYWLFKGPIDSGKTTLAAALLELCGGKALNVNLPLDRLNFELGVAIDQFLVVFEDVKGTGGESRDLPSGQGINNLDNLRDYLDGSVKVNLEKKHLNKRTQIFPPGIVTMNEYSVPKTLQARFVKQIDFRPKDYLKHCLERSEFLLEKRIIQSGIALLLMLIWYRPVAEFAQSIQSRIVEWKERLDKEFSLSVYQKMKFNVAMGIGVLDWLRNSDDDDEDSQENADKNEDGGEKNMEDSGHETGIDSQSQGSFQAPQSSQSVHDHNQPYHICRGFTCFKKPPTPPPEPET
Test: SV40 large T antigen inhibitors, biochemical (AID 1903)
Settings: SV40 large T antigen ATPase/helicase inhibition assay; at 20 µM; stronger effect = higher value
Screen size: about 310,000 compounds; about 1,200 (0.39%) were called active. These entries were drawn from the full list. Measured potencies and affinities stand elsewhere.
VALUE_KIND: inhibition

- SMILES: "Oc1ccc(/C=N/N(c2ccccc2)c2ccccc2)cc1O"
  TARGET: "Large T antigen (Simian virus 40) (UniProt P03070)"
  VALUE_KIND: "inhibition"
  RESULT: "20.4% (inactive)"
- SMILES: "C=CCOc1ccc(/C=C2/C(=N)N3N=C(CC(=O)N4CCCC4)SC3=NC2=O)cc1OC"
  TARGET: "Large T antigen (Simian virus 40) (UniProt P03070)"
  VALUE_KIND: "inhibition"
  RESULT: "11.3% (inactive)"
- SMILES: "CN(C)c1ccc(/C=N/NC(N)=S)cc1[N+](=O)[O-]"
  TARGET: "Large T antigen (Simian virus 40) (UniProt P03070)"
  VALUE_KIND: "inhibition"
  RESULT: "3.04% (inactive)"

Q: # input compound: O=C(N/N=C/c1ccc2c(c1)OCO2)C1CC1 ; wanted: its inhibition
A: -8.98% (inactive)

Q: # input compound: COc1cc(/C=N/Nc2ccccn2)cc(OC)c1O ; wanted: its inhibition
A: 29.8% (inactive)

Q: # input compound: CC(C)c1ccc(/C=C2\C(=N)N3N=C(CC(=O)N4CCCCC4)SC3=NC2=O)cc1 ; wanted: its inhibition
A: 36.9% (inactive)

Q: # input compound: COc1ccc(/C=C2/C(=N)N3N=C(CC(=O)N4CCCC4)SC3=NC2=O)cc1OC ; wanted: its inhibition
A: 14.2% (inactive)

Q: # input compound: CSc1ccc(/C=C2\C(=N)N3N=C(CC(=O)N4CCCCC4)SC3=NC2=O)cc1 ; wanted: its inhibition
A: 26.3% (inactive)

Just for reference, PubChem BioAssay AID1903 is where these values come from.
